- measurement.target: Amine oxidase [flavin-containing] A (Homo sapiens, UniProt P21397)
- Sequence (P21397 whole entry): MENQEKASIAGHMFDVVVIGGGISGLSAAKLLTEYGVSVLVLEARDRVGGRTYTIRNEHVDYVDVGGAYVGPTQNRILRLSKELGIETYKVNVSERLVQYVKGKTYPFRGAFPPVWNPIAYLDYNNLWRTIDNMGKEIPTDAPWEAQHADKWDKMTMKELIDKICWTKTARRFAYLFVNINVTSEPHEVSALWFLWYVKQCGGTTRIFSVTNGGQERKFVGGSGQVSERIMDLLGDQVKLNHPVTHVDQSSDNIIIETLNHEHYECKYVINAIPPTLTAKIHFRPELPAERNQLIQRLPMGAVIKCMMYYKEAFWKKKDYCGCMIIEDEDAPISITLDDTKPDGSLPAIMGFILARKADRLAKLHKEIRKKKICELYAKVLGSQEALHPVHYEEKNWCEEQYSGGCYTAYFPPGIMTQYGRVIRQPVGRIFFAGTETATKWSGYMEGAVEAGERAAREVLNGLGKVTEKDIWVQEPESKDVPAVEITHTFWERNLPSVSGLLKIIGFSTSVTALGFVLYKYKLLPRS
- protocol: Inhibition of human recombinant MAOA using kynuramine as substrate by fluorescence assay
parameter.measured: IC50 (µM)

Solved cases (2 shown):
{"columns": ["compound.structure.string", "IC50 [µM]"],
 "data": [
  ["Cn1c(=O)c2c(nc(NCCc3cccc(Cl)c3)n2C)n(C)c1=O", 5.78],
  ["Cn1c(=O)c2c(nc(SCc3ccc(F)cc3)n2C)n(C)c1=O", 4.8]
]}

a. Cn1c(=O)c2c(nc(SCc3ccccc3)n2C)n(C)c1=O
b. Cn1c(=O)c2c(nc(Sc3ccc4ccccc4c3)n2C)n(C)c1=O
c. Cn1c(=O)c2c(nc(Sc3ccccc3)n2C)n(C)c1=O
Let's sort these by IC50, smallest first. Go ahead? Please list the labels in the order you were asked to rank them.
b, a, c
(b: 3.6 µM, a: 8.22 µM, c: 56.4 µM)

====

- measurement.target: UniProtKB P27338
- protocol: Inhibition of human recombinant MAOB using kynuramine as substrate by fluorescence assay
parameter.measured: IC50 (µM)

{"columns": ["compound.structure.string", "parameter.measured", "reported.result"],
 "data": [
  ["CN(CCCCc1ccccc1)c1nc2c(c(=O)n(C)c(=O)n2C)n1C", "IC50", 2.97],
  ["Cn1c(=O)c2c(nc(NCCc3cccc(Cl)c3)n2C)n(C)c1=O", "IC50", 24.4],
  ["Cn1c(=O)c2c(nc(Sc3ccc4ccccc4c3)n2C)n(C)c1=O", "IC50", 3.6],
  ["Cn1c(=O)c2c(nc(NCCCCc3ccccc3)n2C)n(C)c1=O", "IC50", 9.6]
]}

a. CN(CCc1ccccc1)c1nc2c(c(=O)n(C)c(=O)n2C)n1C
b. Cn1c(=O)c2c(nc(Sc3ccccc3)n2C)n(C)c1=O
Name the one with the greater IC50 value, either a or b as given. Kindly give the label for the entry you pick.
b

====

- measurement.target: Amine oxidase [flavin-containing] B (Homo sapiens)
- Sequence (P27338 whole entry): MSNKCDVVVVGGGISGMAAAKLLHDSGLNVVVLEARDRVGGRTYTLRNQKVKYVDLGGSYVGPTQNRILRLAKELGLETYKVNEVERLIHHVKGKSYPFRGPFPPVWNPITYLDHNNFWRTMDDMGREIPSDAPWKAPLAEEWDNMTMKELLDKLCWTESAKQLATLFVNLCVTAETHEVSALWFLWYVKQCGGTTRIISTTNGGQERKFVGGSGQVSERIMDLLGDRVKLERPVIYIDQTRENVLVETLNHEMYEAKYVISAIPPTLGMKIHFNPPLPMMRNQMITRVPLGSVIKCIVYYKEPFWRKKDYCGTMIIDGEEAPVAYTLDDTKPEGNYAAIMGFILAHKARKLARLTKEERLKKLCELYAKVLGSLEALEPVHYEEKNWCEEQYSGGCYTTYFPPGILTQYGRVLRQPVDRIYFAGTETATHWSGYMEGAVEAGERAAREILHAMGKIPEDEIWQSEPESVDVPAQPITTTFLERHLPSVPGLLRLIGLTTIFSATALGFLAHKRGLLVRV
- protocol: Inhibition of human recombinant MAOB at 100 uM using kynuramine as substrate by fluorescence assay
parameter.measured: IC50

Solved cases (4 shown):
{"columns": ["compound.structure.string", "IC50"],
 "data": [
  ["Cn1c(=O)c2c(nc(NC3CCCC3)n2C)n(C)c1=O", "Not Active"],
  ["Cn1c(=O)c2c(nc(NCCCc3ccccc3)n2C)n(C)c1=O", "Not Active"],
  ["COc1ccc(CSc2nc3c(c(=O)n(C)c(=O)n3C)n2C)cc1", "Not Active"],
  ["Cn1c(=O)c2c(nc(Nc3ccccc3)n2C)n(C)c1=O", "Not Active"]
]}

Observed IC50 on Amine oxidase [flavin-containing] B (Homo sapiens) for `Cn1c(=O)c2c(nc(NCc3ccccc3)n2C)n(C)c1=O` , please.
Not Active
